I'd be grateful if you could share measured CC50 at 24 h for these entries.
EXPERIMENT: in vitro
EXPERIMENTAL_SETUP: rat, gh3-tre-luc cells, AC50 (uM) modified / 1000
Structures can show the parent of a compound that is named as a salt.

A selection of reference data follows.
{"COMPOUND": "C1CN(SSN2CCOCC2)CCO1", "EXPERIMENTAL_RESULT": "69.4 µM"}
{"COMPOUND": "CCCCNc1ccc(C(=O)OCCOCCOCCOCCOCCOCCOCCOCCOCCOC)cc1 [Benzonatate]", "EXPERIMENTAL_RESULT": "> 20 µM"}
{"COMPOUND": "O=c1c(-c2ccc(O)cc2)coc2cc(O)ccc12", "EXPERIMENTAL_RESULT": "> 90 µM"}
{"COMPOUND": "COCCOC(=O)CC#N [2-Methoxyethyl cyanoacetate]", "EXPERIMENTAL_RESULT": "> 90 µM"}
{"COMPOUND": "Nc1cc(Cl)ccc1O", "EXPERIMENTAL_RESULT": "30.7 µM"}

Each of the following entries comes with a recorded value; kindly state CC50 at 24 h for each.
1. C=CCc1ccc(O)c(OC)c1
2. CC(C)[C@@H](Nc1ccc(C(F)(F)F)cc1Cl)C(=O)OC(C#N)c1cccc(Oc2ccccc2)c1 (some centres unmarked) [tau-Fluvalinate]
3. FC(F)(F)C(Cl)Br (centres unmarked)
4. CCC(=O)NS(=O)(=O)c1ccc(-c2c(-c3ccccc3)noc2C)cc1 [Parecoxib sodium]
5. C=CCc1ccccc1O
6. N#CCc1ccccc1[N+](=O)[O-]
7. CCOc1ccc(NS(=O)(=O)c2ccc(N)cc2)nn1

a:
["> 90 µM", "> 90 µM", "> 90 µM", "> 50 µM", "> 90 µM", "> 90 µM", "> 50 µM"]

Each of the following entries comes with a recorded value; kindly state CC50 at 24 h for each.
1. COc1cc(C(=S)N2CCOCC2)cc(OC)c1OC
2. CC(=O)OC[C@H]1O[C@@H](n2ncc(=O)[nH]c2=O)[C@H](OC(C)=O)[C@@H]1OC(C)=O
3. Cc1ccc(O)cc1

a:
> 50 µM
> 50 µM
> 100 µM

Each of the following entries comes with a recorded value; kindly state CC50 at 24 h for each.
1. CC(C)(C)NCC(O)COc1cccc2c1CCC(=O)N2 (centres unmarked) [Carteolol hydrochloride]
2. CCC(Oc1ccccc1)C(=O)N[C@@H]1C(=O)N2[C@@H]1SC(C)(C)[C@@H]2C(=O)O (some centres unmarked)

a:
> 20 µM
> 50 µM

----------
EXPERIMENT: in vitro
EXPERIMENTAL_SETUP: rat, gh3-tre-luc cells, AC50 (uM) modified / 1000
Where a name gives a salt, the structure may show the parent alone.
RECORDED_ENDPOINT: CC50 at 24 h

{"COMPOUND": "O[C@@H](CNC[C@H](O)[C@H]1CCc2cc(F)ccc2O1)[C@@H]1CCc2cc(F)ccc2O1 (racemic) [rac Nebivolol hydrochloride]", "CC50 at 24 h": "7.99 µM"}
{"COMPOUND": "C/C=C/C=C/COC(=O)C(C)C [2,4-Hexadienyl isobutyrate]", "CC50 at 24 h": "75.5 µM"}
{"COMPOUND": "CN1CCCN=C1COC(=O)C(O)(c1ccccc1)C1CCCCC1 (centres unmarked) [Oxyphencyclimine hydrochloride]", "CC50 at 24 h": "> 50 µM"}
{"COMPOUND": "CCCCC(CC)COCCCN (centres unmarked)", "CC50 at 24 h": "> 90 µM"}
{"COMPOUND": "Cc1ccc(C)c(OCCCC(C)(C)C(=O)O)c1", "CC50 at 24 h": "> 90 µM"}
{"COMPOUND": "O=C(O[C@@H](C(=O)O)[C@@H](OC(=O)c1ccccc1)C(=O)O)c1ccccc1", "CC50 at 24 h": "> 90 µM"}

Each of the following entries comes with a recorded value; kindly state CC50 at 24 h for each.
1. C[C@H](Cc1ccc(OCC(=O)O)cc1)NC[C@H](O)c1csc(C(F)(F)F)n1
2. COCc1c(C(C)C)nc(C(C)C)c(/C=C/[C@@H](O)C[C@@H](O)CC(=O)O)c1-c1ccc(F)cc1 [Cerivastatin sodium]
3. CCC1(c2ccccc2)C(=O)NC(=O)N(C(=O)c2ccccc2)C1=O (centres unmarked)

a:
1: > 90 µM; 2: > 50 µM; 3: > 50 µM

----------
STUDY_TARGET: TRα ligand-binding domain (Homo sapiens, UniProt P10827)
Construct: the receptor LBDs expressed as glutathione S-transferase (GST) fusion proteins; purchased
Sequence (P10827 163-410 isoform P10827-2 limits assumed, other chains not shown): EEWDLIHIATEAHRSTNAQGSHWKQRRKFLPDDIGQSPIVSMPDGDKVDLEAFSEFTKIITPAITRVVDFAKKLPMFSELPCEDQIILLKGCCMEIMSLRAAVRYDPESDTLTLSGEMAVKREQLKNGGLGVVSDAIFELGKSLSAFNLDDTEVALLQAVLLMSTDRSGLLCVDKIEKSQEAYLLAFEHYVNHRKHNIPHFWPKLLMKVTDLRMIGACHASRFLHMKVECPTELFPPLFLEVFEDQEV
EXPERIMENT: TRa-coa LanthaScreen TR-FRET coactivator (SRC-2 peptide) recruitment, agonist (TOX21_TRA_COA_Agonist_Followup_ratio, aeid 2230)
Assay type: biochemical
EXPERIMENTAL_SETUP: hit call from tcpl; agonist
Structures can show the parent of a compound that is named as a salt.
RECORDED_ENDPOINT: TRa-coa hitc

A selection of reference data follows.
{"MOLECULE": "COc1cc(C)c(/C=C/C(C)=C/C=C/C(C)=C/C(=O)O)c(C)c1C [Acitretin, reference compound]", "RECORDED_ENDPOINT": "TRa-coa hitc", "EXPERIMENTAL_RESULT": 0}
{"MOLECULE": "COc1ccc(OC)c(C(O)C(C)N)c1 (stereo not drawn) [Methoxamine hydrochloride]", "RECORDED_ENDPOINT": "TRa-coa hitc", "EXPERIMENTAL_RESULT": 0}

// next item, TRa-coa hitc requested
q: Answer with the recorded TRa-coa hitc of C=C(NC(=O)C(=C)NC(=O)c1csc(C2=N[C@@H]3c4csc(n4)[C@H]4NC(=O)c5csc(n5)[C@H]([C@](C)(O)[C@@H](C)O)NC(=O)[C@H]5CSC(=N5)/C(=C/C)NC(=O)[C@H]([C@@H](C)O)NC(=O)c5csc(n5)[C@]3(CC2)NC(=O)[C@H](C)NC(=O)C(=C)NC(=O)[C@H](C)NC(=O)[C@H]([C@@H](C)CC)N[C@@H]2C=Cc3c([C@H](C)O)cc(nc3[C@H]2O)C(=O)O[C@@H]4C)n1)C(N)=O only.
a: 0

----------
EXPERIMENT: in vitro
EXPERIMENTAL_SETUP: rat, gh3-tre-luc cells, AC50 (uM) modified / 1000
I'd be grateful if you could share measured CC50 at 24 h for these entries.

A selection of reference data follows.
{"COMPOUND": "CCC(=O)OC(C)c1ccccc1 (stereo not drawn) [1-Phenylethyl propionate]", "CC50 at 24 h": "> 90 µM"}
{"COMPOUND": "Cc1cc(C)c(C)cc1C", "CC50 at 24 h": "> 90 µM"}

q: Answer with the recorded CC50 at 24 h of Nc1nc(N)c(N)c(N)n1 only.
a: > 90 µM

----------
EXPERIMENT: in vitro
EXPERIMENTAL_SETUP: rat, gh3-tre-luc cells, AC50 (uM) modified / 1000
RECORDED_ENDPOINT: CC50 at 24 h

Each of the following entries comes with a recorded value; kindly state CC50 at 24 h for each.
1. O=C1Nc2ccc(Cl)cc2C(c2ccccc2Cl)=NC1O (stereo not shown)
2. CC(=O)c1ccc2ccccc2c1
3. OC1CCCc2ccccc21 (stereo not shown) [1,2,3,4-Tetrahydronaphthalen-1-ol]
4. O=C(O)c1ccccc1-n1cc(C(=O)O)c(=O)c2cc(Nc3c(F)cc(F)cc3Cl)c(Cl)cc21

a:
["> 50 µM", "> 90 µM", "> 90 µM", "> 90 µM"]

----------
EXPERIMENT: in vitro
EXPERIMENTAL_SETUP: rat, gh3-tre-luc cells, AC50 (uM) modified / 1000
RECORDED_ENDPOINT: CC50 at 24 h

A selection of reference data follows.
{"MOLECULE": "C[CH2][Ge]([Cl])([CH2]C)[CH2]C [Triethylgermanium chloride]", "EXPERIMENTAL_RESULT": "> 90 µM"}
{"MOLECULE": "C=Cc1ccc(C(C)(C)C)cc1", "EXPERIMENTAL_RESULT": "> 90 µM"}

Each of the following entries comes with a recorded value; kindly state CC50 at 24 h for each.
1. CCCCCCCCCCCCCCCCCCCCCC(=O)Nc1ccn([C@@H]2O[C@H](CO)[C@@H](O)[C@@H]2O)c(=O)n1
2. O=C(Cl)c1cccc([N+](=O)[O-])c1 [3-Nitrobenzoyl chloride]
3. CCCCC(CC)COCCC#N (centres unmarked)

a:
> 50 µM
> 90 µM
> 90 µM

----------
EXPERIMENT: in vitro
EXPERIMENTAL_SETUP: rat, gh3-tre-luc cells, AC50 (uM) modified / 1000
Structures can show the parent of a compound that is named as a salt.
RECORDED_ENDPOINT: CC50 at 24 h

A selection of reference data follows.
{"MOLECULE": "CCCCCCCCOS(=O)(=O)O [Sodium octyl sulfate]", "EXPERIMENTAL_RESULT": "> 90 µM"}
{"MOLECULE": "O=C(O)c1ccc(NC2OC[C@@H](O)[C@H](O)[C@H]2O)cc1 (stereo partly drawn) [Benaxibine]", "EXPERIMENTAL_RESULT": "> 50 µM"}
{"MOLECULE": "CCCCC/C=C\\C/C=C\\CCCCCCCC(=O)NC(C)c1ccccc1 (stereo not drawn) [Melinamide]", "EXPERIMENTAL_RESULT": "> 50 µM"}
{"MOLECULE": "CCc1ccc(O)c(OC)c1 [4-Ethyl-2-methoxyphenol]", "EXPERIMENTAL_RESULT": "> 90 µM"}
{"MOLECULE": "CCCCCCCCCCCCCOP(=O)(O)O [Monotridecyl phosphate]", "EXPERIMENTAL_RESULT": "> 90 µM"}

Each of the following entries comes with a recorded value; kindly state CC50 at 24 h for each.
1. CN(C)/C=N/c1c(I)cc(I)c(CCC(=O)O)c1I [Ipodate sodium]
2. CNC(=O)[C@H](Cc1c[nH]c2ccccc12)NC(=O)[C@@H](CC(=O)NO)CC(C)C [Ilomastat]

a:
> 50 µM
1.28 µM

Each of the following entries comes with a recorded value; kindly state CC50 at 24 h for each.
1. CO[C@@H]1[C@@H](OC)[C@H](C)[C@@](O)(CC(=O)O)O[C@H]1[C@H](C)[C@H]1O[C@@]2(CC[C@@](C)([C@H]3CC[C@@](C)([C@@H]4O[C@@H]([C@H]5O[C@](C)(O)[C@H](C)C[C@@H]5C)C[C@@H]4O[C@@H]4C[C@H](OC)[C@@H](OC)[C@H](C)O4)O3)O2)C[C@H](O)[C@H]1C [Maduramicin ammonium]
2. CCN(C)N=O [N-Nitroso-N-methylethylamine]
3. O=C(Nc1ccc(Cl)c(Cl)c1)C1CC1 [Cypromid]

a:
["0.49 µM", "> 90 µM", "> 50 µM"]

src = paper PMC6792352
